Tested on: Enterococcus sp.
TEST: in vitro antibacterial evaluation, MIC by broth dilution
Format: cell-based
RUN CONDITIONS: broth dilution, 18 hours at 35° C.
Catalogue of MIC Enterococcus avium (GC 4558) readings, one per entry.

# COMPOUND, MIC Enterococcus avium (GC 4558) (µg/mL)
rows = [
    ("N=C1NCC(C(O)C2NC(=O)C(CC3CCC(OC4OC(CO)C(OC5OC6COC7(OC6C(O)C5O)C5CC6CC(C5)CC7C6)C(O)C4O)CC3)NC(=O)C(CC3CCCCC3)NC(=O)CNC(=O)C(CO)NC(=O)C(C(O)C3CNC(=N)N3C3OC(CO)C(O)C(O)C3O)NC2=O)N1 (single isomer, unassigned) [Example 223]", 64),
    ("N=C1NCC(C(O)C2NC(=O)C(CC3CCC(OC4OC(CO)C(OC5OC6COC7(OC6C(O)C5O)C5CC6CC(C5)CC7C6)C(O)C4O)CC3)NC(=O)C(CC3CCCCC3)NC(=O)CNC(=O)C(CO)NC(=O)C(C(O)C3CNC(=N)N3C3OC(CO)C(O)C(O)C3O)NC2=O)N1 (single isomer, unassigned) [Example 222]", 64),
]

====

Test system: Escherichia coli
TEST: in vitro antibacterial evaluation, MIC by broth dilution
Format: cell-based
RUN CONDITIONS: Escherichia coli (ATCC 25922), 18 hours at 35° C.
Numbered stars: 1 amine (or outer) side, 2 acyl side, 3 side chain; on linkers, the order of the positions; unused ones are H or OH. Square brackets hold non-standard residues; d marks the D form. Peptide text beside a SMILES is read from it. * marks the point of attachment. ξ: configuration not given here. X1 = N=C1NCC(C(O)C(N[*:1])C(=O)[*:2])N1C1OC(CO)C(O)C(O)C1O; ξEnduracididine(βξ-OH,4'ξ) = N=C1NCC(C(O)C(N)C(=O)O)N1; X2 = OCC1OC(OC2C(CO)OC(*)C(O)C2O)C(O)C(O)C1O; Cha = N[CH](CC1CCCCC1)C(=O)O

# COMPOUND, MIC Escherichia coli (ATCC 25922)
records = [
    ("CC(C)CC(=O)OC1C(O)C(CO)OC(OC2C(CO)OC(Oc3ccc(CC4NC(=O)C(C(C)c5cccs5)NC(=O)CNC(=O)C(CO)NC(=O)C(C(O)C5CNC(=N)N5C5OC(CO)C(O)C(O)C5O)NC(=O)C(C(O)C5CNC(=N)N5)NC4=O)cc3)C(O)C2O)C1O (centres unmarked) [Example 265b]", ">64 µg/mL"),
    ("N=C1NCC(C(O)C2NC(=O)C(Cc3ccc(OC4OC(CO)C(OC5OC(CO)C(O)C(O)C5O)C(O)C4O)cc3)NC(=O)C(CC3CCCCC3)NC(=O)CNC(=O)C(CO)NC(=O)C(C(O)C3CNC(=N)N3C3OC(CO)C(O)C(O)C3O)NC2=O)N1 (stereo not drawn) [Example 263] (cyclo(G[Cha]Y(X2)[ξEnduracididine(βξ-OH,4'ξ)][X1]S); configuration not given here)", ">64 µg/mL"),
]

====

Catalogue of MIC Coagulase Negative Staphylococcus (GC 4549) readings, one per entry.
Test system: Staphylococcus sp.
TEST: in vitro antibacterial evaluation, MIC by broth dilution
Assay type: cell-based
RUN CONDITIONS: broth dilution, 18 hours at 35° C.; strain GC 4549
PROPERTY: MIC Coagulase Negative Staphylococcus (GC 4549) (µg/mL)

# COMPOUND, MEASURE UNIT, READING
rows = [
    ("COC1CCC2(C)C(CCC3C2CCC2(C)C(C(C)CCC4OCC5OC(OC6C(CO)OC(Oc7ccc(CC8NC(=O)C(C(C)c9ccccc9)NC(=O)CNC(=O)C(CO)NC(=O)C(C(O)C9CNC(=N)N9C9OC(CO)C(O)C(O)C9O)NC(=O)C(C(O)C9CNC(=N)N9)NC8=O)cc7)C(O)C6O)C(O)C(O)C5O4)CCC32)C1 (stereo not shown)", "µg/mL", 16),
    ("COc1ccc(COCC2OC(OC3C(CO)OC(Oc4ccc(CC5NC(=O)C(C(C)c6ccccc6)NC(=O)CNC(=O)C(CO)NC(=O)C(C(O)C6CNC(=N)N6C6OC(CO)C(O)C(O)C6O)NC(=O)C(C(O)C6CNC(=N)N6)NC5=O)cc4)C(O)C3O)C(O)C(O)C2O)cc1OCc1ccccc1 (stereo not shown)", "µg/mL", 1),
    ("CC(c1ccccc1)C1NC(=O)CNC(=O)C(CO)NC(=O)C(CC2CNC(=N)N2C2OC(CO)C(O)C(O)C2O)NC(=O)C(CC2CNC(=N)N2)NC(=O)C(Cc2ccc(OC3OC(CO)C(OC4OC(COCc5ccc(OCc6ccccc6)cc5)C(O)C(O)C4O)C(O)C3O)cc2)NC1=O (stereo not shown)", "µg/mL", 4),
]

Reference source for all entries: patent US6914045B2
